tested on: MRP1 (Multidrug resistance-associated protein 1) (Homo sapiens, UniProt P33527)
Sequence (P33527 whole entry): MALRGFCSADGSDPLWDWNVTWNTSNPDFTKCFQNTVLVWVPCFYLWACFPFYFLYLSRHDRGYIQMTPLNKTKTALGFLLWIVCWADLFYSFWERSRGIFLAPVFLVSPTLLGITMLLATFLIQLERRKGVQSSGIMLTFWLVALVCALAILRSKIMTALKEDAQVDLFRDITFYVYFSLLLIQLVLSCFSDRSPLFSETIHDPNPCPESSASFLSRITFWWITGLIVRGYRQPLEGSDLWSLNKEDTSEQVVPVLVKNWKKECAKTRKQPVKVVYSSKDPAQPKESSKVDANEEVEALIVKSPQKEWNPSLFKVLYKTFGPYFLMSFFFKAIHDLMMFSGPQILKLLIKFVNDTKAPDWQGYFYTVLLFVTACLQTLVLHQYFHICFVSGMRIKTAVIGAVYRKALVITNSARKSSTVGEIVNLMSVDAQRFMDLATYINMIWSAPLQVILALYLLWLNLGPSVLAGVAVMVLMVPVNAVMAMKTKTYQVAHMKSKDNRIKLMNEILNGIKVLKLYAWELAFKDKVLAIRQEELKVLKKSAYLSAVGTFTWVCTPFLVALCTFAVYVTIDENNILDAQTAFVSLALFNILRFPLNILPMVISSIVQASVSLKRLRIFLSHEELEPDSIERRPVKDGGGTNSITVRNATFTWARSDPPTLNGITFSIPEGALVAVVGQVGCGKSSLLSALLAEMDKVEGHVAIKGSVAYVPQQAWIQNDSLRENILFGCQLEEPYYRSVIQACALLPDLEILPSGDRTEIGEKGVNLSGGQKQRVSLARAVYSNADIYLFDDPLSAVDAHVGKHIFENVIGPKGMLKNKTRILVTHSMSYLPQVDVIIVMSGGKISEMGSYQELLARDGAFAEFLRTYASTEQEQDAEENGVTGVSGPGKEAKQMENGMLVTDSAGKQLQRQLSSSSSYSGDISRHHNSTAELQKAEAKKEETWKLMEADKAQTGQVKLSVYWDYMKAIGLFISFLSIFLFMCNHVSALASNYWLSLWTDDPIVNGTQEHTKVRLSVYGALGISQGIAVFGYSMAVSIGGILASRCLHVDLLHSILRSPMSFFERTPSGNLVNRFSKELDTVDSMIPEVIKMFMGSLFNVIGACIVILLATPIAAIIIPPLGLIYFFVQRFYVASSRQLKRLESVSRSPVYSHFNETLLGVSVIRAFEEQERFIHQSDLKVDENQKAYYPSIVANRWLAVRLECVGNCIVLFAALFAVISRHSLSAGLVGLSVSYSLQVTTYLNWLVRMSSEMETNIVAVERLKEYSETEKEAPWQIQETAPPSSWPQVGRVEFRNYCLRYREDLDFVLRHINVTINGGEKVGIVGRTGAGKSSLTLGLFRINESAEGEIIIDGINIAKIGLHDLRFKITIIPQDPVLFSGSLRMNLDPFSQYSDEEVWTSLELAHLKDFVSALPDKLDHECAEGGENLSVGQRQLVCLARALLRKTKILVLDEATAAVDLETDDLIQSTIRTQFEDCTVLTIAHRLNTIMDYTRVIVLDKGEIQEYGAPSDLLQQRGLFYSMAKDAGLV
test: TP_TRANSPORTER: inhibition of EA-GS uptake (EA-GS: 0.2 uM, GA1: 10 uM, in the presence of GSH) in membrane vesicles from MRP1-expressing DTY 168 yeast cells
Format: functional, cell membranes, Membrane vesicle
Parameters: scale not given: the % may be the effect or the level left
test parameters: probe EA-GS (0.2 uM), read-out: Activity
measure name: activity at 10 µM (%)
One number for each entry, in %.

Ask: Any idea what its activity at 10 µM is? The molecule is CCCCC[C@H](O)/C=C/[C@H]1C=CC(=O)[C@@H]1CCCCCCC(=O)O
Reply: 15
